Tested on: MALME-3M
Experiment: NCI-60 SRB growth inhibition, one-dose and five-dose
Type: cell-based
Conditions: Homo sapiens, read-out: percent growth inhibition
I'd be grateful if you could share measured inhibition at 10 µM for these entries.
Answer format: numeric, % implied, no suffix.

QUERY: What measured inhibition at 10 µM goes with CC(=O)Nc1ccc(CNc2cccc(C(=O)/C=C/c3cccnc3)c2)cc1 [Compound 5b] ?
RESULT: 132

QUERY: Now this one: O=C(/C=C/c1cccnc1)c1cccc(NCc2csc3ccccc23)c1 [Compound 5d]
RESULT: 104

QUERY: Now try O=C(/C=C/c1c[nH]cn1)c1cccc(NCc2ccc(CO)cc2)c1 [Compound 5m] .
RESULT: 23.1
